Consider the following compounds; for each one, report its Ki.
- TARGET_ENTITY: MDM2 (Homo sapiens, UniProt Q00987)
- Sequence (Q00987 whole entry): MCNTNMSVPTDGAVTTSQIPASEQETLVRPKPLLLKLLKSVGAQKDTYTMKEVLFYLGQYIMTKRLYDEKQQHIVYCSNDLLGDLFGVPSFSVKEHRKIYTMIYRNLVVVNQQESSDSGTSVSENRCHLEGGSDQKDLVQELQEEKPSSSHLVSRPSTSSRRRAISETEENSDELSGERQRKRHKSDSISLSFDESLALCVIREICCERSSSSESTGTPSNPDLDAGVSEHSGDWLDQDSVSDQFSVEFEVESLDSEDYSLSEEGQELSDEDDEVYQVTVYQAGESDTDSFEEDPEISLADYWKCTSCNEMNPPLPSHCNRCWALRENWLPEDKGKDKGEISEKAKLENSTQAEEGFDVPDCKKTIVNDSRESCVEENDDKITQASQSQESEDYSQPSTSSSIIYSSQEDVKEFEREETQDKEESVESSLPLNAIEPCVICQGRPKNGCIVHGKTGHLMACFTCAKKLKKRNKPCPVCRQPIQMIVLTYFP
- RUN_DESCRIPTION: NMR-based binding assay, MDM2
- EXPERIMENTAL_SETUP: imidazolidine scaffold, Table 3

>>> reported_measurement("COC(=O)C1(c2ccccc2)N=CN(CC2CC2)C1c1c[nH]c2ccccc12 (stereo not shown)")
"~30 µM"

Please give Ki for each item listed below.
1. COC(=O)C1(c2ccccc2)N=CN(c2ccc(Cl)cc2)C1c1ccc(Cl)cc1 (stereo not shown)
2. COC(=O)C1(c2ccccc2)N=CN(C2CCNCC2)C1c1ccc(Cl)cc1 (stereo not shown)
3. COC(=O)C1(c2ccc(Cl)cc2)N=CN(CC2CC2)C1c1ccc(Cl)cc1 (stereo not shown) [drawing 67]
4. COC(=O)C1(CC(C)C)N=CN(CC2CC2)C1c1ccc(Cl)cc1 (stereo not shown)

1. ~5 µM
2. ~50 µM
3. ~40 µM
4. ~1 µM

Below are some compounds; for each one, tell me its Ki.
1. COC(=O)C1(c2ccccc2)N=CN(C(C)c2ccc(Cl)cc2)C1c1ccc(Cl)cc1 (stereo not shown)
2. COC(=O)C1(c2ccccc2)N=CN(CC2CC2)C1c1ccc(Cl)cc1F (stereo not shown) [drawing 58]
3. COC(=O)C12N=CN(CC3CC3)C1c1ccc(Cl)cc1C2C (stereo not shown)
4. O=C(NCCN1CCOCC1)C1(c2ccccc2)N=CN(CC2CC2)C1c1ccc(Cl)cc1 (stereo not shown)
5. COC(=O)C1(c2ccccc2)N=CN(Cc2cccnc2)C1c1ccc(Cl)cc1 (stereo not shown)

1. ~20 µM
2. ~2 µM
3. ~2 µM
4. 1 µM
5. ~5 µM
